experimental-target: PDZRN4_1, Q6ZMN7
Sequence (Q6ZMN7 213-318): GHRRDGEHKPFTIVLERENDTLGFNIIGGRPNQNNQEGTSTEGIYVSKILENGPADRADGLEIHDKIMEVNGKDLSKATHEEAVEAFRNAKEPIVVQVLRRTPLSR
test-summary: holdup assay
Parameters: key: below the threshold = too weak to quantify, mostly under pKd 3.1 to 4
assay-context: plain residues with an end cap or a label only (N-terminal biotin on a linker: ado-ado)
measured-quantity: pKd

Worked examples follow.
# binder, pKd
rows = [
    ("SAKVRTVTSV [RASL11B, Q9BPW5]", "below the threshold"),
    ("KSGKQTMLVV [TRIM29, Q14134]", 3.68),
    ("LPAHHNATRL [SLC34A1, Q06495;Q06495-1]", 4.2),
    ("MLSKQSESAI [FLVCR1, Q9Y5Y0]", 3.62),
    ("EALLQMESVA [CAVIN3, Q969G5]", "below the threshold"),
    ("VNKSKLLTDV [KCNA1, Q09470]", "below the threshold"),
    ("PKRSFIESNV [TANC1, Q9C0D5]", 3.82),
    ("QGPVETESVV [SLC45A4, Q5BKX6]", 3.64),
]

List reported pKd for each of these binders:
1. QPCFNKLFPL [LPXN, O60711]
2. GQEEQVTTRL [TRPC5, Q9UL62]
3. CLREWCDAFL [BANF1, O75531]
4. QHKTQLQTLI [BPIFA2, Q96DR5]
5. SNAGNTATKA [NOSTRIN, Q8IVI9]
6. GSGAVEMESV [AQP6, Q13520]

1: below the threshold; 2: 3.64; 3: below the threshold; 4: below the threshold; 5: below the threshold; 6: below the threshold

List reported pKd for each of these binders:
1. VRNLPESEEL [MYOZ3, Q8TDC0]
2. QKNRKAQEDL [CES3, Q6UWW8]

below the threshold
below the threshold
